Source listed as patent US20150305367A1.

Please go through the items and note down their inhibition at 10 µM.
Target: recombinant human MAO-B (Homo sapiens, UniProt P27338)
Construct: purchased Sigma-Aldrich; host or cells: baculovirus-infected insect cells (microsomes)
Sequence (P27338 1-520): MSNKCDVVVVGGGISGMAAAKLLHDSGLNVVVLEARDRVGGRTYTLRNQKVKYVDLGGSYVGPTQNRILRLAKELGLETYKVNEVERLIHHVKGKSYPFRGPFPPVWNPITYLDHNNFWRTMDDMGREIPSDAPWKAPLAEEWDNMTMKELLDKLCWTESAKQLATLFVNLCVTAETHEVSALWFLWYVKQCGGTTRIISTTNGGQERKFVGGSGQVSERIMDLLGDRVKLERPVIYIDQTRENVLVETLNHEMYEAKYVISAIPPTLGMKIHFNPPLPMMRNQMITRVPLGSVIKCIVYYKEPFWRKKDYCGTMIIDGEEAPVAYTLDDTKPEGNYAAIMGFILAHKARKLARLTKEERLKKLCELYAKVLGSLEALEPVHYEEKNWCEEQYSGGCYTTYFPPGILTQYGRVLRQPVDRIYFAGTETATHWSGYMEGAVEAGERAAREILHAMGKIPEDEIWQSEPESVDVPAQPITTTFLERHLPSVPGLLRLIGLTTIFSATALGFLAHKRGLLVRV
Experiment: MAO-Glo chemiluminescent MAO-B inhibition assay
Assay type: biochemical
Conditions: test concentration 10 μM; mean ± standard deviation, triplicate; 90 min incubation
# output: bare number, implied unit %

Recorded inhibition at 10 µM for `COc1ccc(C=O)cc1OC` , please?
2

Recorded inhibition at 10 µM for O=C(/C=C/c1ccccc1)OCc1ccccc1 [Benzyl cinnamate] , please?
63

Recorded inhibition at 10 µM for O=C(O)c1ccc(O)cc1 [4-Hydroxybenzoic acid] , please?
9

Recorded inhibition at 10 µM for `COc1cc(C(=O)O)ccc1O` , please?
5

Recorded inhibition at 10 µM for `C=CCc1ccc(O)c(OC)c1` , please?
4

Recorded inhibition at 10 µM for CC1=C(O)C(=O)C(C)O1 (centres unmarked) [4-Hydroxy-2,5-dimethyl-3(2H)-furanone] , please?
9

Recorded inhibition at 10 µM for `COc1cc(CO)ccc1O` , please?
9

Recorded inhibition at 10 µM for O=Cc1ccc(O)cc1 [4-Hydroxybenzaldehyde] , please?
6

Recorded inhibition at 10 µM for `COc1ccccc1O` , please?
0

Recorded inhibition at 10 µM for `CCOc1cc(C=O)ccc1O` , please?
0

Recorded inhibition at 10 µM for CC(=O)C(C)O (centres unmarked) [3-Hydroxy-2-butanone] , please?
6

Recorded inhibition at 10 µM for `COc1cc(/C=C/C(=O)O)ccc1O` , please?
9

Recorded inhibition at 10 µM for O=Cc1ccc(O)c(O)c1 [3,4-Dihydroxybenzaldehyde] , please?
4

Recorded inhibition at 10 µM for `COc1ccc(C=O)cc1` , please?
11

Recorded inhibition at 10 µM for `O=C(O)/C=C/c1ccc(O)cc1` , please?
16

Recorded inhibition at 10 µM for OCc1ccc(O)cc1 [4-Hydroxybenzyl alcohol] , please?
0

Recorded inhibition at 10 µM for `O=Cc1ccc2c(c1)OCO2` , please?
53

* * *

Target: recombinant human MAO-B (Homo sapiens, UniProt P27338)
Construct: purchased Sigma-Aldrich; host or cells: baculovirus-infected insect cells (microsomes)
Sequence (P27338 1-520): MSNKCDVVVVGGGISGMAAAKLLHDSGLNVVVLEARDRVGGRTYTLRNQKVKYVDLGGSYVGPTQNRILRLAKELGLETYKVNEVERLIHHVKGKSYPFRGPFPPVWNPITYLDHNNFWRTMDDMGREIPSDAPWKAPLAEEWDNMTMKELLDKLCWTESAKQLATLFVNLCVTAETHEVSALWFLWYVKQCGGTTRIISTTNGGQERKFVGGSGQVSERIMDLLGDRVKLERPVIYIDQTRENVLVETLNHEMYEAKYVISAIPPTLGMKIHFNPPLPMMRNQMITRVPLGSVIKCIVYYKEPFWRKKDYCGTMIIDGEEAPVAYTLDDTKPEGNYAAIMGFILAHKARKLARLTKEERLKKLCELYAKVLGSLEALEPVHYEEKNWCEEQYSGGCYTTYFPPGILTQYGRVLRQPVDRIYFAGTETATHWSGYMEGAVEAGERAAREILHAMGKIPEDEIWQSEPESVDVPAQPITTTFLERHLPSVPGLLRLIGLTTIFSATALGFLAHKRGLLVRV
Assay: MAO-Glo chemiluminescent MAO-B inhibition assay
Assay type: biochemical
Details: overall verdict over 1, 10 and 100 μM
measurement.label: MAO-B inhibition (Yes/No)

compound="O=C(O)c1ccc(O)cc1 [4-Hydroxybenzoic acid]" recorded_result=No
compound="O=Cc1ccc(O)c(O)c1 [3,4-Dihydroxybenzaldehyde]" recorded_result=No
compound="CC1=C(O)C(=O)C(C)O1 (stereo not shown) [4-Hydroxy-2,5-dimethyl-3(2H)-furanone]" recorded_result=No
compound=COc1ccc(C=O)cc1 recorded_result=Yes

* * *

target: recombinant human MAO-B (Homo sapiens); construct: purchased Sigma-Aldrich; host or cells: baculovirus-infected insect cells (microsomes); assay: MAO-Glo chemiluminescent MAO-B inhibition assay; assay type: biochemical; details: test concentration 1 μM; mean ± standard deviation, triplicate; 90 min incubation
measurement.label: inhibition at 1 µM (%)
# output: bare number, implied unit %

Recorded inhibition at 1 µM for O=C(O)c1ccc(O)cc1 [4-Hydroxybenzoic acid] , please?
13

Recorded inhibition at 1 µM for COc1ccc(C=O)cc1 [4-Methoxybenzaldehyde] , please?
0

Recorded inhibition at 1 µM for O=Cc1ccc(O)cc1 [4-Hydroxybenzaldehyde] , please?
10

Recorded inhibition at 1 µM for COc1cc(/C=C/C(=O)O)ccc1O [Ferulic acid] , please?
4

Recorded inhibition at 1 µM for COc1ccc(C=O)cc1OC [Veratraldehyde] , please?
1

Recorded inhibition at 1 µM for COc1cc(C(=O)O)ccc1O [Vanillic acid] , please?
6

* * *

molecular target: recombinant human MAO-B (Homo sapiens, UniProt P27338); construct: purchased Sigma-Aldrich; host or cells: baculovirus-infected insect cells (microsomes); experiment: MAO-Glo chemiluminescent MAO-B inhibition assay; type: biochemical; conditions: overall verdict over 1, 10 and 100 μM;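 further: MAO-B from microsomes of baculovirus-infected insect cells, luciferin-based luminescence read-out, inhibition relative to enzyme activity with DMSO vehicle alone and no inhibitor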
measurement.label: MAO-B inhibition (Yes/No)

compound="O=C(/C=C/c1ccccc1)OCc1ccccc1 [Benzyl cinnamate]" tested_system="recombinant human MAO-B (Homo sapiens, UniProt P27338)" recorded_result=Yes
compound=COc1cc(CO)ccc1O tested_system="recombinant human MAO-B (Homo sapiens, UniProt P27338)" recorded_result=No
compound=COc1ccc(C=O)cc1OC tested_system="recombinant human MAO-B (Homo sapiens, UniProt P27338)" recorded_result=No
compound="CC(=O)C(C)O (stereo not drawn) [3-Hydroxy-2-butanone]" tested_system="recombinant human MAO-B (Homo sapiens, UniProt P27338)" recorded_result=No
compound=CCOc1cc(C=O)ccc1O tested_system="recombinant human MAO-B (Homo sapiens, UniProt P27338)" recorded_result=No

Recall the recorded MAO-B inhibition (Yes/No) for OCc1ccc(O)cc1 [4-Hydroxybenzyl alcohol] with recombinant human MAO-B (Homo sapiens, UniProt P27338) and state it.
No

* * *

Please go through the items and note down their inhibition at 1 µM.
Molecular target: recombinant human MAO-B (Homo sapiens)
Construct: purchased Sigma-Aldrich; host or cells: baculovirus-infected insect cells (microsomes)
Sequence (P27338 1-520): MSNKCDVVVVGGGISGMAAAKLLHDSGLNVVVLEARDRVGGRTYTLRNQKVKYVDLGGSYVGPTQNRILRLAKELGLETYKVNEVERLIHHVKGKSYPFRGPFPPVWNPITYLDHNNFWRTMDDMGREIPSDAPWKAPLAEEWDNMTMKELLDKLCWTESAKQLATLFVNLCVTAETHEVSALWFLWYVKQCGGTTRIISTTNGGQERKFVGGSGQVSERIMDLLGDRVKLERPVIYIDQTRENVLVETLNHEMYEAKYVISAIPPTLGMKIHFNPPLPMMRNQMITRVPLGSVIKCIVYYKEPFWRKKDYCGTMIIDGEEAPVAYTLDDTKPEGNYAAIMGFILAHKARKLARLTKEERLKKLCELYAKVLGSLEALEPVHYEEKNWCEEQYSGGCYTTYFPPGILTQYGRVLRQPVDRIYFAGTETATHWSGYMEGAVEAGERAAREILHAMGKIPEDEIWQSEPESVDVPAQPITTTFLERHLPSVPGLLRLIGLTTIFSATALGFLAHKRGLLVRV
Assay: MAO-Glo chemiluminescent MAO-B inhibition assay
Format: biochemical
Details: test concentration 1 μM; mean ± standard deviation, triplicate; 90 min incubation

Recorded inhibition at 1 µM for `COc1cc(CO)ccc1O` , please?
2%

Recorded inhibition at 1 µM for O=C(/C=C/c1ccccc1)OCc1ccccc1 [Benzyl cinnamate] , please?
10%

Recorded inhibition at 1 µM for `CCOc1cc(C=O)ccc1O` , please?
0%

Recorded inhibition at 1 µM for OCc1ccc(O)cc1 [4-Hydroxybenzyl alcohol] , please?
1%

Recorded inhibition at 1 µM for CC(=O)C(C)O (centres unmarked) [3-Hydroxy-2-butanone] , please?
11%

Recorded inhibition at 1 µM for `O=Cc1ccc2c(c1)OCO2` , please?
10%

Recorded inhibition at 1 µM for `COc1ccccc1O` , please?
0%

Recorded inhibition at 1 µM for `C=CCc1ccc(O)c(OC)c1` , please?
0%

Recorded inhibition at 1 µM for O=Cc1ccc(O)c(O)c1 [3,4-Dihydroxybenzaldehyde] , please?
0%

Recorded inhibition at 1 µM for CC1=C(O)C(=O)C(C)O1 (centres unmarked) [4-Hydroxy-2,5-dimethyl-3(2H)-furanone] , please?
0%

Recorded inhibition at 1 µM for `O=C(O)/C=C/c1ccc(O)cc1` , please?
11%
